Test system: A-431
Assay: Cytotoxicity against human A431 cells after 96 hrs by SRB assay
Assay type: functional, cell-based
Details: A-431, 96 h
pIC50: −log10 of the molar value.
readout type: pIC50

>>> recorded_value("COc1ccc(/C=C/C(=O)c2cc(OC)c(OC)c(OC)c2)cc1O")
7.82

* * *

Tested on: NCI-H358
Test: Cytotoxicity against human NCI-H358 cells after 96 hrs by SRB assay
Assay type: functional, cell-based
Conditions: NCI-H358, 96 h
pIC50: −log10 of the molar value.
readout type: pIC50

>>> recorded_value("COc1ccc(/C=C/C(=O)c2cc(OC)c(OC)c(OC)c2)cc1O")
7.77
